Here's a batch of compounds along with measured MIC for Bacillus subtilis.
Parameter measured: MIC (µM)

Chemical smiles	Parameter measured	Comparison operator	Measured value
CC[C@H](C)[C@H](NC(=O)[C@@H](NC(=O)[C@@H]1CCCN1C(=O)[C@@H](NC(=O)[C@@H]1CCCN1C(=O)[C@H](CCCCN)NC(=O)[C@H](CCCCN)NC(=O)[C@H](CO)NC(=O)CN)C(C)C)[C@@H](C)CC)C(=O)N[C@@H](Cc1ccc(O)cc1)C(=O)N[C@H]1CSSC[C@@H](C(=O)N[C@@H](CCC(N)=O)C(=O)N[C@@H](CCCN=C(N)N)C(=O)N[C@@H](CCSC)C(=O)O)NC(=O)[C@H](CCCCN)NC(=O)[C@H](CCCN=C(N)N)NC(=O)[C@H](CCCN=C(N)N)NC(=O)[C@H](CC(N)=O)NC1=O	MIC	=	5.2
CC(C)C[C@H](N)C(=O)N[C@@H](Cc1ccc(O)cc1)C(=O)N[C@@H](CCCN=C(N)N)C(=O)N[C@@H](CCCN=C(N)N)C(=O)N[C@@H](CCCN=C(N)N)C(=O)N[C@@H](Cc1ccccc1)C(=O)N[C@H](C(=O)N[C@H](C(=O)NCC(=O)N[C@@H](CCCN=C(N)N)C(N)=O)C(C)C)C(C)C	MIC	≥	50
CC(C)C[C@H](NC(=O)CNC(=O)[C@H](C)NC(=O)[C@@H](N)CCCN=C(N)N)C(=O)N[C@@H](CCC(N)=O)C(=O)N[C@@H](Cc1ccccc1)C(=O)N[C@@H](CC(C)C)C(=O)N[C@H](C(=O)NCC(=O)N[C@@H](CCCN=C(N)N)C(=O)N[C@H](C(=O)N[C@@H](Cc1cnc[nH]1)C(=O)N[C@@H](CCCN=C(N)N)C(=O)N[C@@H](CC(C)C)C(=O)N[C@@H](CC(C)C)C(=O)N[C@@H](CCCN=C(N)N)C(=O)N[C@@H](CCCCN)C(=O)O)C(C)C)C(C)C	MIC	=	15.8
CC[C@H](C)[C@H](NC(=O)[C@H](CCCN=C(N)N)NC(=O)[C@H](CC(C)C)NC(=O)CN)C(=O)N[C@@H](CC(C)C)C(=O)N[C@@H](CC(C)C)C(=O)N[C@@H](CC(C)C)C(=O)N[C@@H](CCCCN)C(=O)N[C@H](C(N)=O)C(C)C	MIC	=	12.4
CC[C@H](C)[C@H](NC(=O)[C@H](CO)NC(=O)CNC(=O)[C@H](CCCN=C(N)N)NC(=O)[C@@H](NC(=O)[C@H](CO)NC(=O)[C@@H](NC(=O)CNC(=O)[C@H](CO)NC(=O)[C@H](CC(C)C)NC(=O)[C@H](CC(C)C)NC(=O)CN)[C@@H](C)O)C(C)C)C(=O)O	MIC	=	15.7
CC[C@H](C)[C@H](N)C(=O)N[C@@H](CC(N)=O)C(=O)N[C@@H](Cc1c[nH]c2ccccc12)C(=O)N[C@@H](CCCCN)C(=O)N[C@@H](CCCCN)C(=O)N[C@H](C(=O)N[C@@H](C)C(=O)N[C@@H](CO)C(=O)N[C@H](C(=O)NCC(=O)N[C@@H](CCCCN)C(=O)N[C@@H](CCC(=O)O)C(=O)N[C@H](C(=O)N[C@@H](CC(C)C)C(=O)N[C@@H](CCCCN)C(=O)N[C@@H](C)C(=O)N[C@H](C(N)=O)[C@@H](C)CC)C(C)C)[C@@H](C)CC)[C@@H](C)CC	MIC	=	27.2
CC[C@H](C)[C@H](NC(=O)[C@H](Cc1ccccc1)NC(=O)[C@@H](NC(=O)[C@H](CC(C)C)NC(=O)[C@H](CCCN=C(N)N)NC(=O)[C@H](CCCCN)NC(=O)[C@H](CCCN=C(N)N)NC(=O)[C@H](CCCCN)NC(=O)[C@H](CC(C)C)NC(=O)[C@H](CC(C)C)NC(=O)[C@@H](NC(=O)[C@@H](N)Cc1ccc(O)cc1)C(C)C)[C@@H](C)CC)C(=O)O	MIC	≥	200
CC[C@H](C)[C@H](N)C(=O)N[C@@H](CC(=O)O)C(=O)N[C@@H](Cc1c[nH]c2ccccc12)C(=O)N[C@@H](CCCCN)C(=O)N[C@@H](CCCCN)C(=O)N[C@H](C(=O)N[C@@H](Cc1ccccc1)C(=O)N[C@@H](CCC(=O)O)C(=O)N[C@@H](CCCCN)C(=O)N[C@H](C(=O)N[C@@H](CCCCN)C(=O)N[C@@H](CC(N)=O)C(=O)N[C@@H](CC(C)C)C(=O)N[C@H](C(N)=O)C(C)C)C(C)C)[C@@H](C)CC	MIC	=	8.5
CC(C)C[C@H](NC(=O)CNC(=O)[C@H](CC(C)C)NC(=O)[C@@H](N)Cc1ccccc1)C(=O)N[C@@H](CC(C)C)C(=O)N[C@@H](Cc1ccccc1)C(=O)N[C@@H](CCCCN)C(=O)N[C@H](C(=O)N[C@@H](C)C(=O)N[C@@H](CO)C(=O)N[C@@H](CCCCN)C(=O)O)C(C)C	MIC	≥	40.9
CSCC[C@H](NC(=O)[C@H](CCSC)NC(=O)[C@H](CCCCN)NC(=O)[C@H](CCCCN)NC(=O)CNC(=O)[C@H](CC(C)C)NC(=O)[C@H](CCCCN)NC(=O)[C@H](CC(C)C)NC(=O)[C@H](Cc1c[nH]c2ccccc12)NC(=O)[C@H](CC(N)=O)NC(=O)[C@@H](N)CO)C(=O)N[C@@H](CO)C(=O)N[C@@H](C)C(=O)N[C@@H](CC(C)C)C(N)=O	MIC	≥	40
CC(C)[C@H](NC(=O)CNC(=O)[C@H](CCCN=C(N)N)NC(=O)[C@@H](NC(=O)[C@@H](NC(=O)[C@@H](NC(=O)[C@H](CCCN=C(N)N)NC(=O)CNC(=O)[C@@H](NC(=O)[C@H](CCCN=C(N)N)NC(=O)[C@@H](NC(=O)[C@@H](NC(=O)[C@@H](NC(=O)CN)C(C)C)C(C)C)C(C)C)C(C)C)C(C)C)C(C)C)C(C)C)C(=O)N[C@@H](CCCN=C(N)N)C(=O)N[C@@H](CCCN=C(N)N)C(N)=O	MIC	=	8

---

Here's a batch of compounds along with measured MIC for Escherichia coli.

Chemical smiles	Units	MIC
CC[C@H](C)[C@H](NC(=O)[C@H](CCCCN)NC(=O)[C@H](Cc1cnc[nH]1)NC(=O)[C@H](CC(C)C)NC(=O)[C@H](CC(C)C)NC(=O)[C@H](Cc1ccccc1)NC(=O)[C@H](CC(N)=O)NC(=O)[C@@H](N)C(C)C)C(=O)N[C@@H](Cc1ccc(O)cc1)C(=O)NCC(=O)N[C@@H](CC(N)=O)C(=O)N[C@H](C(=O)N[C@@H](CCCN=C(N)N)C(=O)N[C@@H](CC(=O)O)C(=O)N[C@@H](CO)C(=O)O)[C@@H](C)CC	µM	2.18
CC[C@H](C)[C@H](NC(=O)[C@H](CCCN=C(N)N)NC(=O)[C@H](CC(C)C)NC(=O)CN)C(=O)N[C@@H](CC(C)C)C(=O)N[C@@H](CC(C)C)C(=O)N[C@@H](CC(C)C)C(=O)N[C@@H](CCCCN)C(=O)N[C@H](C(N)=O)C(C)C	µM	77.2
CC(C)C[C@H](NC(=O)[C@H](CCCCN)NC(=O)[C@H](Cc1cnc[nH]1)NC(=O)[C@H](CCCCN)NC(=O)[C@H](CC(C)C)NC(=O)[C@H](CC(C)C)NC(=O)[C@@H](N)CCCCN)C(=O)N[C@@H](CC(C)C)C(=O)N[C@H](C(=O)N[C@H](C(=O)N[C@@H](CC(C)C)C(=O)N[C@@H](C)C(=O)O)[C@@H](C)O)C(C)C	µM	18.2

---

Here's a batch of molecules along with measured MIC for Acinetobacter baumannii ATCC 19606.

Molecule	Assayed target	Comparison operator	MIC / µM
NCCCC[C@H](NC(=O)[C@H](Cc1ccccc1)NC(=O)[C@H](Cc1ccccc1)NC(=O)[C@H](CCCCN)NC(=O)[C@H](Cc1ccccc1)NC(=O)[C@H](Cc1ccccc1)NC(=O)[C@H](CCCCN)NC(=O)[C@H](Cc1ccccc1)NC(=O)[C@H](Cc1ccccc1)NC(=O)[C@@H](N)CCCCN)C(N)=O [KFFKFFKFFK]	Acinetobacter baumannii ATCC 19606	=	32
CC[C@H](C)[C@H](NC(=O)[C@H](CCCN=C(N)N)NC(=O)[C@H](CCCCN)NC(=O)[C@H](CO)NC(=O)[C@@H](NC(=O)[C@@H](N)CCCCN)[C@@H](C)CC)C(=O)N[C@@H](CC(C)C)C(=O)N[C@H](C(=O)NCC(=O)N[C@@H](CCCCN)C(=O)N[C@@H](CCCCN)C(N)=O)[C@@H](C)O [KISKRILTGKK]	Acinetobacter baumannii ATCC 19606	>	201
CC[C@H](C)[C@@H]1NC(=O)[C@H](CO)NC(=O)[C@H](C(C)C)NC(=O)[C@H]([C@@H](C)O)NC(=O)[C@H](Cc2c[nH]c3ccccc23)NC(=O)[C@@H](NC(=O)CNC(=O)[C@H](CCCCN)NC(=O)[C@H](CCCCN)NC(=O)[C@H](C)NC(=O)[C@H](C)N)CSSC[C@@H](C(=O)N[C@@H](Cc2ccccc2)C(N)=O)NC(=O)[C@@H]2CCCN2C(=O)[C@H](CCCCN)NC(=O)[C@@H]2CCCN2C(=O)[C@@H]2CCCN2C1=O [AAKKGCWTVSIPPKPCF]	Acinetobacter baumannii ATCC 19606	=	16
CC(C)[C@H](NC(=O)[C@H](Cc1c[nH]c2ccccc12)NC(=O)[C@H](Cc1cnc[nH]1)NC(=O)[C@H](CCCN=C(N)N)NC(=O)[C@H](CCCN=C(N)N)NC(=O)[C@H](Cc1c[nH]c2ccccc12)NC(=O)[C@H](Cc1c[nH]c2ccccc12)NC(=O)[C@H](Cc1cnc[nH]1)NC(=O)[C@H](Cc1c[nH]c2ccccc12)NC(=O)[C@H](CCCN=C(N)N)NC(=O)[C@@H](N)CCCCN)C(=O)N[C@H](C(=O)N[C@@H](Cc1c[nH]c2ccccc12)C(N)=O)C(C)C [KRWHWWRRHWVVW]	Acinetobacter baumannii ATCC 19606	=	50
NCCCC[C@H](NC(=O)[C@H](CCCCN)NC(=O)[C@H](Cc1c[nH]c2ccccc12)NC(=O)[C@H](CCCN=C(N)N)NC(=O)[C@H](CCCCN)NC(=O)[C@H](Cc1c[nH]c2ccccc12)NC(=O)[C@H](Cc1c[nH]c2ccccc12)NC(=O)[C@@H](N)CCCCN)C(=O)N[C@@H](Cc1c[nH]c2ccccc12)C(=O)N[C@@H](Cc1c[nH]c2ccccc12)C(N)=O [KWWKRWKKWW]	Acinetobacter baumannii ATCC 19606	=	8
CC(C)C[C@H](NC(=O)[C@H](CCCN=C(N)N)NC(=O)[C@H](CCCN=C(N)N)NC(=O)[C@H](Cc1c[nH]c2ccccc12)NC(=O)[C@H](Cc1c[nH]c2ccccc12)NC(=O)[C@H](Cc1c[nH]c2ccccc12)NC(=O)[C@H](CCCN=C(N)N)NC(=O)[C@H](CCCN=C(N)N)NC(=O)[C@@H](N)CC(C)C)C(N)=O [LRRWWWRRL]	Acinetobacter baumannii ATCC 19606	=	64
CC[C@H](C)[C@H](NC(=O)[C@H](CCCN=C(N)N)NC(=O)[C@@H]1CCCN1C(=O)[C@H](CC(C)C)NC(=O)[C@H](Cc1ccccc1)NC(=O)[C@H](CCCCN)NC(=O)[C@H](CO)NC(=O)[C@H](Cc1ccccc1)NC(=O)[C@H](Cc1c[nH]c2ccccc12)NC(=O)[C@@H]1CCCN1C(=O)[C@@H](NC(=O)[C@@H](N)Cc1ccccc1)C(C)C)C(=O)N[C@@H](CC(C)C)C(N)=O [FVPWFSKFLPRIL]	Acinetobacter baumannii ATCC 19606	=	48
